For each record, write down the corresponding TGI.
- System: NCI/ADR-RES ovarian
- procedure_summary: NCI tumour cell line growth inhibition, 48 h
Answers are plain numbers, in µM.

Use the examples below as a reference point.
CC(C)=CC[C@@H]1CC2(CC=C(C)C)C(=O)C(OC3(C(=O)c4ccccc4)C(=O)C4(CC=C(C)C)C[C@@H](CC=C(C)C)C(C)(C)C(CC=C(C)C)(C4=O)C3=O)(C(=O)c3ccccc3)C(=O)C(CC=C(C)C)(C2=O)C1(C)C (some centres not stated) : 5.67
CCC(C)N1CN(c2ccccc2)C2(CCN(CC3COc4ccccc4O3)CC2)C1=O (configuration not stated) : 44.1
CN1CCN(Cc2ccc(NC(=O)c3cncc(C#Cc4cnc(N)c5ncccc45)c3)cc2C(F)(F)F)CC1 : 3.13

Lab note: next compound to report on.
Request: State the recorded TGI for this entry: `COc1cc(/C=C/C(=O)c2cccc(-n3cc(-c4ccccc4)[nH]c3=O)c2)cc(OC)c1OC`
Response: 4.58
